# SYSTEM: IRE1α (Homo sapiens (Human), UniProt O75460, D688N)
# Sequence (O75460 547-977 D688N): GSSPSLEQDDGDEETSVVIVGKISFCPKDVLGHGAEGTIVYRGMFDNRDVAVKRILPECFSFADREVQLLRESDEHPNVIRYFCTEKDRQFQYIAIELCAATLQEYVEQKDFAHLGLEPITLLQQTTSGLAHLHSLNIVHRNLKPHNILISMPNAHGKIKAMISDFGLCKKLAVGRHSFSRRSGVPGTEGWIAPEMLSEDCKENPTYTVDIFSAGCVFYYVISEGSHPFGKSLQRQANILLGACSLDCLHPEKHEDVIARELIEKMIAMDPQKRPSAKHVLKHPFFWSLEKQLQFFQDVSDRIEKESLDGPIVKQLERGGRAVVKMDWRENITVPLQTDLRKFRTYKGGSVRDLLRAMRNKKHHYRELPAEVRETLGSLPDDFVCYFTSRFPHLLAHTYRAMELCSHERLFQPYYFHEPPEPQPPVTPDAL
# EXPERIMENT NOTES: IRE1α TR-FRET competition binding assay (IRE1α HTRF)
# EXPERIMENTAL PARAMETERS: TR-FRET competition binding to kinase domain of IRE1α
Where a name gives a salt, the structure may show the parent alone.
pIC50: recorded values
When answering, recall that pIC50 equals minus log10 of the concentration in mol/L, and write that number alone.

Cc1nc(NS(=O)(=O)c2ccccc2Cl)ccc1-c1nc2cnc(N[C@H]3CC[C@H](N(C)CCF)CC3)nc2n(C(C)C)c1=O ... 9.54
Cc1nc(NS(=O)(=O)c2ccccc2F)ccc1-c1cc2cnc(N[C@H]3CC[C@H](N(C)C)CC3)nc2n(C(C)C)c1=O ... 9.52
Cc1nc(NS(=O)(=O)Cc2ccc(F)cc2)ccc1-c1nc2cnc(N[C@H]3CC[C@H](N(C)C)CC3)nc2n(C(C)C)c1=O ... 9.00
O=c1c(-c2ccc(NS(=O)(=O)Cc3ccccc3)c(F)c2F)cc2cnc(N[C@@H]3CNC[C@@H](F)C3)nc2n1C1CCCC1 ... 9.39
CC(C)n1c(=O)c(-c2ccc(NS(=O)(=O)N(C)C)c(F)c2)nc2cnc(N[C@@H]3CNC[C@@H](F)C3)nc21 ... 9.37
CC(C)n1c(=O)c(-c2cc(F)c(NS(=O)(=O)Cc3ccc(C(F)F)cc3)c(F)c2)nc2cnc(N[C@H]3CC[C@H](N(C)C)CC3)nc21 ... 9.70
CCC(C)n1c(=O)c(-c2ccc(NS(=O)(=O)Cc3ccccc3F)c(F)c2)cc2cnc(N[C@@H]3CNC[C@@H](F)C3)nc21 (single isomer, unassigned) [Compound 202A, hydrochloride] ... 9.59
CC(C)n1c(=O)c(-c2ccc(NS(=O)(=O)CCC(F)(F)F)c(F)c2)nc2cnc(N[C@H]3CC[C@H](N(C)C)[C@@H](F)C3)nc21 (stereo in doubt) [Compound 179A] ... 9.66

Using the record for CC(C)n1c(=O)c(-c2ccc(NS(=O)(=O)CCC(F)(F)F)c(F)c2)nc2cnc(N[C@@H]3CNC[C@H](CF)C3)nc21 , report its pIC50.
9.05

If you can, please state the reported pIC50 value of CC(C)n1c(=O)c(-c2cc(F)c(NCC(O)C(F)(F)F)c(F)c2F)cc2cnc(N[C@H]3CC[C@H](N(C)C)CC3)nc21 (stereo partly drawn) [Compound 99] .
7.34
